- assay.info: Luciferase activity of purified RLuc mutants (light output integrated over 10 s, luminometer)
- Assay type: biochemical
- test.conditions: benzyl-coelenterazine; relative to native enzyme
Recorded Activity (relative to RLuc) bc for the following molecules
Lab note: jot the number down without any unit.

Please look at this molecule and report its Activity (relative to RLuc) bc: C124A/K300A: RLuc mutant C124A/K300A (protein) MASKVYDPEQRKRMITGPQWWARCKQMNVLDSFINYYDSEKHAENAVIFLHGNAASSYLWRHVVPHIEPVARCIIPDLIGMGKSGKSGNGSYRLLDHYKYLTAWFELLNLPKKIIFVGHDWGAALAFHYSYEHQDKIKAIVHAESVVDVIESWDEWPDIEEDIALIKSEEGEKMVLENNFFVETMLPSKIMRKLEPEEFAAYLEPFKEKGEVRRPTLSWPREIPLVKGGKPDVVQIVRNYNAYLRASDDLPKMFIESDPGFFSNAIVEGAKKFPNTEFVKVKGLHFSQEDAPDEMGKYIASFVERVLKNEQ
1.0

Please look at this molecule and report its Activity (relative to RLuc) bc: C124A/G229E: RLuc mutant C124A/G229E (protein) MASKVYDPEQRKRMITGPQWWARCKQMNVLDSFINYYDSEKHAENAVIFLHGNAASSYLWRHVVPHIEPVARCIIPDLIGMGKSGKSGNGSYRLLDHYKYLTAWFELLNLPKKIIFVGHDWGAALAFHYSYEHQDKIKAIVHAESVVDVIESWDEWPDIEEDIALIKSEEGEKMVLENNFFVETMLPSKIMRKLEPEEFAAYLEPFKEKGEVRRPTLSWPREIPLVKGEKPDVVQIVRNYNAYLRASDDLPKMFIESDPGFFSNAIVEGAKKFPNTEFVKVKGLHFSQEDAPDEMGKYIKSFVERVLKNEQ
0.01
